B1: ADAMTS4 (parent)
chain: HVDPEEPWSPCSARFITDFLDNGY

- Variants of: B1
- experimentNotes: protein stability index of a GFP-peptide fusion (GPS, HEK-293T) (PSI 1-6); higher = more stable;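 further: lentivirally expressed fusions sorted by FACS into six bins by GFP to DsRed ratio, PSI derived from sequencing read proportions per bin multiplied by bin number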
- experimentalParameters: c terminus: a fixed tail appended
assayEndpoint: protein stability index

Requested read-out: protein stability index. Entry: HVDPEEPWEPCSARFITDFLDNGY [S9E]
3.19

Next up: HVDPEEPWSPCSARFITDFLDNAY [G23A]
1.74

Next up: HVDPEEPWSPCSARFITTFLDNGY [D18T]
1.65

Next up: HVDPEEPWSPCSADFITDFLDNGY [R14D]
2.45

Next up: HVDPEEPWSPCSAMFITDFLDNGY [R14M]
1.51

Next up: HVDPEEPWSPCSARFITDRLDNGY [F19R]
1.65

Next up: HVDPEEPWSPCSARFITDFLDNGN [Y24N]
2.21

Next up: HVDPEEPWSPCSWRFITDFLDNGY [A13W]
1.95

Next up: HVDPEEEWSPCSARFITDFLDNGY [P7E]
2.67

Next up: HVDPEEPWSPCSARMITDFLDNGY [F15M]
1.91

Next up: HVDPEEPWSPCSSRFITDFLDNGY [A13S]
1.89

Next up: HVDPEEPWSPCSARWITDFLDNGY [F15W]
1.64

Next up: HVDPEDPWSPCSARFITDFLDNGY [E6D]
1.76

Next up: HVDPEEPWSPCDARFITDFLDNGY [S12D]
2.39

Next up: HVDPREPWSPCSARFITDFLDNGY [E5R]
2.77

Next up: HVDPEEPWSPCSARFITDFLDCGY [N22C]
2.35

Next up: HVDPPEPWSPCSARFITDFLDNGY [E5P]
2.29

Next up: HVDPEEPWSPCSARFITDFLVNGY [D21V]
2.2

Next up: HVDPEEPWSPCSARFITDFLDNKY [G23K]
2.06

Next up: HVDPEEPWSPCSARFITDFLDNGE [Y24E]
2.01

Next up: HVDPEEPWSPCAARFITDFLDNGY [S12A]
1.68

Next up: HVDPEEPWSPKSARFITDFLDNGY [C11K]
2.21

Next up: HVDPEEPWSPCSARFITDFLDNGG [Y24G]
2.36

Next up: HVDPEEPWSPCSARFITHFLDNGY [D18H]
1.89

Next up: HVDPEEFWSPCSARFITDFLDNGY [P7F]
2.85

Next up: HVDPEEPWSPCSARFFTDFLDNGY [I16F]
1.63

Next up: HVDPEEPWSPCSARFITDFLQNGY [D21Q]
2.21

Next up: HVDPEERWSPCSARFITDFLDNGY [P7R]
2.14

Next up: HVDPEEPWSPCSARFITDFLDNGT [Y24T]
2

Next up: GVDPEEPWSPCSARFITDFLDNGY [H1G]
2.81

Next up: HSDPEEPWSPCSARFITDFLDNGY [V2S]
2.55

Next up: HWDPEEPWSPCSARFITDFLDNGY [V2W]
2.08

Next up: HVDPHEPWSPCSARFITDFLDNGY [E5H]
1.66

Next up: HVDPEEPWSICSARFITDFLDNGY [P10I]
2.1

Next up: HVDPEEPWSPCSLRFITDFLDNGY [A13L]
1.88

Next up: HVDPEEPWSPCSARFITGFLDNGY [D18G]
1.59

Next up: HVFPEEPWSPCSARFITDFLDNGY [D3F]
1.79

Next up: HVDPEEPWSPCSARFITLFLDNGY [D18L]
2.6

Next up: HVDPEEPWSPCSARFITDFLINGY [D21I]
2.69

Next up: HVDPEEPWSPCSARFITDFLMNGY [D21M]
1.77

Next up: HVDPEEPWSPCSAGFITDFLDNGY [R14G]
2.15

Next up: EVDPEEPWSPCSARFITDFLDNGY [H1E]
2.76

Next up: HVDPEEPWSPCSARFNTDFLDNGY [I16N]
2.19

Next up: HVDPEEPWHPCSARFITDFLDNGY [S9H]
2.17

Next up: HVDPEEPWSPCSAWFITDFLDNGY [R14W]
1.58

Next up: HVDPEEPWSPCSDRFITDFLDNGY [A13D]
2.35

Next up: HVDPEEPWSPCSARFETDFLDNGY [I16E]
2.33

Next up: HVDPEEPWMPCSARFITDFLDNGY [S9M]
1.77

Next up: HVDPEEPWSPCSARFITDLLDNGY [F19L]
1.64

Next up: HVDPEEPWSPCSARFITDMLDNGY [F19M]
1.89

Next up: HVDPEEPWSPCSAEFITDFLDNGY [R14E]
2.58

Next up: HVDPEEPWSPQSARFITDFLDNGY [C11Q]
2.18

Next up: HVDPEEPWSPTSARFITDFLDNGY [C11T]
2.15

Next up: HVDPEEPWSPCSARFTTDFLDNGY [I16T]
1.74

Next up: PVDPEEPWSPCSARFITDFLDNGY [H1P]
2.57

Next up: HVDPEEPWSPCSARFIYDFLDNGY [T17Y]
1.83

Next up: HVDPEEPWSPCSARFITDFLDNGI [Y24I]
2.05

Next up: HVDPEEPKSPCSARFITDFLDNGY [W8K]
3.48

Next up: HVDPEEPWSPCSARFRTDFLDNGY [I16R]
2.84

Next up: HVDPEEVWSPCSARFITDFLDNGY [P7V]
2.56

Next up: HVDPEEPWSPCSARRITDFLDNGY [F15R]
2.25

Next up: HVDPEEPWSPCNARFITDFLDNGY [S12N]
2.05

Next up: HRDPEEPWSPCSARFITDFLDNGY [V2R]
2.4

Next up: HVDPEEPWSQCSARFITDFLDNGY [P10Q]
2.1

Next up: HVGPEEPWSPCSARFITDFLDNGY [D3G]
2.78

Next up: HVDPEEPWSPCSARFITDFMDNGY [L20M]
1.82

Next up: VVDPEEPWSPCSARFITDFLDNGY [H1V]
2.04

Next up: HVDPQEPWSPCSARFITDFLDNGY [E5Q]
2.43

Next up: HVDPEEPWSPCSAHFITDFLDNGY [R14H]
1.84

Next up: HVDPEEPWSPCSARFITDALDNGY [F19A]
1.86

Next up: HVDPEEPWSPCSNRFITDFLDNGY [A13N]
2.33

Next up: HVDPEEPWSPCSARFITDCLDNGY [F19C]
1.5

Next up: HVDPEEPWSPCSARFITDFLDGGY [N22G]
2.07

Next up: HVDPEEPWSPCSFRFITDFLDNGY [A13F]
1.92

Next up: HVDPEEPWSPCSARFDTDFLDNGY [I16D]
1.94

Next up: HVDPEEPWSPCSARFITDFRDNGY [L20R]
2.3

Next up: HVDPEEGWSPCSARFITDFLDNGY [P7G]
1.92

Next up: HVDPEEPWSPESARFITDFLDNGY [C11E]
2

Next up: HVDPEEPWSPCSARAITDFLDNGY [F15A]
1.94

Next up: HVDPEEPWSPCSARFIQDFLDNGY [T17Q]
1.77

Next up: HVDPEEPWSPCSARFITDFLPNGY [D21P]
1.96

Next up: HVDPEEPWSPCSARFLTDFLDNGY [I16L]
1.67

Next up: HVDPEEPWSPCSARDITDFLDNGY [F15D]
2.47

Next up: HVDPEEPISPCSARFITDFLDNGY [W8I]
3.34

Next up: HVDPEEPWSPCSARFITDDLDNGY [F19D]
2.54

Next up: HVDPEEPWSPCSARFITVFLDNGY [D18V]
2.03

Next up: HVVPEEPWSPCSARFITDFLDNGY [D3V]
1.77

Next up: HVDPEEPWSPCSARFITDFLDLGY [N22L]
1.71

Next up: KVDPEEPWSPCSARFITDFLDNGY [H1K]
1.91

Next up: HVDPEEPWSPCSARFITDFLDNGA [Y24A]
2.32

Next up: HVDPEEPWSPCSARFITDFLDNRY [G23R]
1.53

The reported numbers originate from the supplement of paper PMC10567573.
